tested on: HEK293; assay: Inhibition of TNFalpha-activated NF-kappaB expressed in HEK293 cells at 50 uM by luciferase reporter gene assay; assay type: cell-based
Property Measured: inhibition (%)

1) Cc1ccc(-c2nsc(-c3ccc(C)cc3Br)n2)c(Br)c1	0
2) Brc1ccc(-c2nsc(-c3ccc(Br)cc3)n2)cc1	0
3) Ic1cccc(-c2nsc(-c3cccc(I)c3)n2)c1	0
4) Clc1ccc(-c2nsc(-c3ccc(Cl)cc3)n2)cc1	0
5) Cc1cc(Br)ccc1-c1nsc(-c2ccc(Br)cc2C)n1	6.7
6) Cc1cc(Cl)ccc1-c1nsc(-c2ccc(Cl)cc2C)n1	0
7) Cc1c(Cl)cccc1-c1nsc(-c2cccc(Cl)c2C)n1	20.3
8) c1cc(-c2nsc(-c3ccncc3)n2)ccn1	7.2
9) FC(F)(F)c1ccc(-c2nsc(-c3ccc(C(F)(F)F)cc3)n2)cc1	0
10) Clc1cccc(-c2nsc(-c3cccc(Cl)c3Cl)n2)c1Cl	0
11) FC(F)(F)c1ccccc1-c1nsc(-c2ccccc2C(F)(F)F)n1	0
12) Oc1ccc(CCc2cc(O)cc(O)c2)cc1 [DIHYDRORESVERATROL]	16.7
13) COc1cccc(-c2nsc(-c3cccc(OC)c3)n2)c1	93.9
